Give measured DC50 for each item. Keep answers brief.
system_name: Androgen Receptor (AR) (Homo sapiens)
Construct: endogenous in cells; host or cells: VCaP
Sequence (P10275 whole entry): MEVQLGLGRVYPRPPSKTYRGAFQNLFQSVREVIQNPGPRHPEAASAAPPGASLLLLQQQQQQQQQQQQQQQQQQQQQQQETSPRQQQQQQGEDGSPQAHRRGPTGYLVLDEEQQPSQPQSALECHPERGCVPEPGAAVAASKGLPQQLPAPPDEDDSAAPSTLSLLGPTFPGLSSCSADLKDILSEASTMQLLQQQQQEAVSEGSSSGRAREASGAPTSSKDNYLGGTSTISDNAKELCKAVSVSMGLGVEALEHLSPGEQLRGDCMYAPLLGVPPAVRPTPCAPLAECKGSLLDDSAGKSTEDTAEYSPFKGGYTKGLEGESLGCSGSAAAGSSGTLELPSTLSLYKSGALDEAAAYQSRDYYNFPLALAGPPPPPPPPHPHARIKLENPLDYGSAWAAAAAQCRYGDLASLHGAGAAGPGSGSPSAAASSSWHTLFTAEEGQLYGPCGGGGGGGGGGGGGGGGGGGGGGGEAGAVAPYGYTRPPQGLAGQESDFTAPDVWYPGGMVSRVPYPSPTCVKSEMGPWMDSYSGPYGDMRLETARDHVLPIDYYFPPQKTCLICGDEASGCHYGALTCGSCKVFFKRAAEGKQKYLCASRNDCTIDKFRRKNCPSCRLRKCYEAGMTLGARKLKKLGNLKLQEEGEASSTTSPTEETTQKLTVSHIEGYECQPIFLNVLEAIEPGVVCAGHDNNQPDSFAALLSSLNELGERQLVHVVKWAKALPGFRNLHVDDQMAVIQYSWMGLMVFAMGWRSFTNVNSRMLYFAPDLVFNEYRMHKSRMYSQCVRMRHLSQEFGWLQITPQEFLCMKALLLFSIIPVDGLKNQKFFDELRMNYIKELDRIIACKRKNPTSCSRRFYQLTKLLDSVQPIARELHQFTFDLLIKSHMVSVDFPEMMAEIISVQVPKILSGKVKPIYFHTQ
assay_details: AR immunofluorescence staining, high content imager, VCaP cells
Type: cell-based
test_parameters: AR degradation by immunofluorescence

Some solved cases for reference:
molecule	system_name	DC50
Cc1cc(O[C@H]2C(C)(C)[C@H](NC(=O)c3ccc(N4CC5(C4)CN([C@H]4C[C@H](Oc6ccc(C(=O)N[C@H]7CCC(=O)NC7=O)c(F)c6)C4)CCO5)cc3)C2(C)C)cc(C)c1C#N	Androgen Receptor (AR) (Homo sapiens)	< 1 nM
COc1cc(O[C@H]2C(C)(C)[C@H](NC(=O)c3ccc(N4CCC(O[C@H]5C[C@H](Oc6ccc(C(=O)NC7CCC(=O)NC7=O)c(OC)c6)C5)CC4)cc3)C2(C)C)ccc1C#N (stereo partly shown)	Androgen Receptor (AR) (Homo sapiens)	< 1 nM
Cc1cc(O[C@H]2C(C)(C)[C@H](NC(=O)c3ccc(N4CCOC(CN(C(C)C)[C@H]5C[C@@H](Oc6ccc(F)c(C(=O)N[C@H]7CCC(=O)NC7=O)c6)C5)C4)cc3)C2(C)C)cc(C)c1C#N (stereo partly shown)	Androgen Receptor (AR) (Homo sapiens)	< 1 nM

Please state, for each entry, its recorded DC50.
1. Cc1cc(O[C@H]2C(C)(C)[C@H](NC(=O)c3ccc(N4CCC(CN5CCN(c6cnc(C(=O)N[C@H]7CCC(=O)NC7=O)cn6)CC5)CC4)cc3)C2(C)C)cc(C)c1C#N
2. Cc1cc(O[C@H]2C(C)(C)[C@H](NC(=O)c3ccc(N4CCC5(CC4)CN([C@H]4C[C@H](Oc6ccc(C(=O)NC7CCC(=O)NC7=O)cc6)C4)CCO5)cc3)C2(C)C)cc(C)c1C#N (stereo partly shown)
3. COCCN(C[C@H]1CN(c2ccc(C(=O)N[C@H]3C(C)(C)[C@@H](Oc4cc(C)c(C#N)c(C)c4)C3(C)C)cc2)CCO1)[C@H]1C[C@H](Oc2ccc(C(=O)N[C@@H]3CCC(=O)NC3=O)c(F)c2)C1
4. COc1cc(N2CCN(C[C@H]3CN(c4ccc(C(=O)N[C@H]5C(C)(C)[C@H](Oc6cc(C)c(C#N)c(C)c6)C5(C)C)cc4)CCO3)CC2)ccc1C(=O)NC1CCC(=O)NC1=O (stereo partly shown)
5. Cc1cc(O[C@H]2C(C)(C)[C@H](NC(=O)c3ccc(N4CC(CN5CC(c6ccc(C(=O)N[C@H]7CCC(=O)NC7=O)c(F)c6)C5)C4)cc3)C2(C)C)cc(C)c1C#N

Return:
1. < 1 nM
2. 1 to 10 nM
3. < 1 nM
4. < 1 nM
5. < 1 nM

For each of the items listed, what is its DC50?
1. N#Cc1ccc(O[C@H]2CC[C@H](NC(=O)c3ccc(N4CCC(CN5CCN(c6ccc(C(=O)NC7CCC(=O)NC7=O)cn6)CC5)CC4)nn3)CC2)cc1Cl (stereo partly shown)
2. COc1cc(O[C@H]2C(C)(C)[C@H](NC(=O)c3ccc(N4CCC(CN5CCN(c6ccc(C(=O)N[C@@H]7CCC(=O)NC7=O)c(F)c6)CC5)CC4)cc3)C2(C)C)ccc1C#N

Return:
1. < 1 nM
2. 1 to 10 nM

---

Hi there, I'd appreciate the recorded DC50 for every entry that follows.
system_name: Androgen Receptor (AR) (Homo sapiens)
Construct: endogenous in cells; host or cells: VCaP
assay_details: AR immunofluorescence staining, high content imager, VCaP cells
Assay type: cell-based
test_parameters: AR degradation by immunofluorescence

Consider the reported DC50 for these compounds:
compound	observed_measurement
COc1cc(O[C@H]2C(C)(C)[C@H](NC(=O)c3ccc(N4CCC(CN5CCN(c6ccc(C(=O)NC7CCC(=O)NC7=O)cc6OC)CC5)CC4)cc3)C2(C)C)ccc1C#N (stereo partly drawn) [Compound 60]	< 1 nM
Cc1cc(O[C@H]2C(C)(C)[C@H](NC(=O)c3ccc(N4CCO[C@@H](CN5CCN(c6ccc(C(=O)N[C@H]7CCC(=O)NC7=O)c(F)c6)CC5)C4)cc3)C2(C)C)cc(C)c1C#N [Compound 52]	< 1 nM

Enquiry: # lookup: DC50 of COc1cc(O[C@H]2C[C@H](N3CCOC4(CCN(c5ccc(C(=O)N[C@H]6C(C)(C)[C@H](Oc7cc(C)c(C#N)c(C)c7)C6(C)C)cc5)CC4)C3)C2)ccc1C(=O)NC1CCC(=O)NC1=O (stereo partly drawn) [Compound 53]
Return: < 1 nM
